Where these numbers come from: patent US20240360165A1

- test_target: CDK9/Cyclin T1 complex (Homo sapiens, UniProt P50750)
- Sequence (P50750 whole entry, species assumed): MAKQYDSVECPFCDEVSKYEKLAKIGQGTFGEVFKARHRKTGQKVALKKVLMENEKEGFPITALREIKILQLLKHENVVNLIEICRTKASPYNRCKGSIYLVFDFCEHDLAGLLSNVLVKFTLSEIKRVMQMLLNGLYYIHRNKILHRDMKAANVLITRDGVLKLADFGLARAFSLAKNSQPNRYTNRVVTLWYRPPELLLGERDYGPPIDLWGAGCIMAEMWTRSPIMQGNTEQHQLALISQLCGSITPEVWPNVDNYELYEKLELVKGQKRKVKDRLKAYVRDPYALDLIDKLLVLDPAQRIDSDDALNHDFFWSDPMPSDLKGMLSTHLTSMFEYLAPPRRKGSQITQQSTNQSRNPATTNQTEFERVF
- Sequence (O60563 whole entry partner, species assumed): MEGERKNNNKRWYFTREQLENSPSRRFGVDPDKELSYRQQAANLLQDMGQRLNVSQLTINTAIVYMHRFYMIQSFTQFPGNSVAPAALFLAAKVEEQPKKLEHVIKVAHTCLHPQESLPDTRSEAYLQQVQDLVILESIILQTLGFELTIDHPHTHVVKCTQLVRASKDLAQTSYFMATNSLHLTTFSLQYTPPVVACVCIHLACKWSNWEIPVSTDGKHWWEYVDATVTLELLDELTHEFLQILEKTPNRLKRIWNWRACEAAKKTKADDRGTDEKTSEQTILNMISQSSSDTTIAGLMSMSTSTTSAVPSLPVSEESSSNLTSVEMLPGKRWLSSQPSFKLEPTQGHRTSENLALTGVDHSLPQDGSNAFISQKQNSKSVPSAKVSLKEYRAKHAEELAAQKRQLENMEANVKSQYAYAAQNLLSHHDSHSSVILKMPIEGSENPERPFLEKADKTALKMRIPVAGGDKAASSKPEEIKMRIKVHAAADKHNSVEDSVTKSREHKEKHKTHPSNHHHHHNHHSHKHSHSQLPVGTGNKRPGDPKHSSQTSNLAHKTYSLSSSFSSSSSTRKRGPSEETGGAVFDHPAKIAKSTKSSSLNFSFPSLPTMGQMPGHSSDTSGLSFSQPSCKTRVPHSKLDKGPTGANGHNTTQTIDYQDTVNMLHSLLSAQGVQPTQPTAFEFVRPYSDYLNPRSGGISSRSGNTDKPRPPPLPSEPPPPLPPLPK
- test: CDK9 inhibition assay (Caliper/LabChip EZ Reader kinase assay)
- Type: biochemical
- stated_conditions: Table 1; CDK9/Cyclin T1 8 nM, ATP 2 mM, 15 min at 27° C.; listed as 141
pIC50: −log10 of the molar value.
quantity_measured: pIC50

Query :: Please report pIC50 with CDK9/Cyclin T1 complex (Homo sapiens, UniProt P50750) for item FC(F)(F)c1cnc(N[C@H]2CCCNC2)nc1-c1c[nH]c2cc(-c3cccc(Oc4ccccc4)c3)ccc12 [Compound 341] .
Result :: 5.30 to 6.70

* * *

- test_target: CDK12 (aa686-1082)/Cyclin K complex (Homo sapiens, UniProt Q9NYV4)
- Construct: CDK12 (aa686-1082)/Cyclin K complex
- Sequence (Q9NYV4 686-1082, species assumed): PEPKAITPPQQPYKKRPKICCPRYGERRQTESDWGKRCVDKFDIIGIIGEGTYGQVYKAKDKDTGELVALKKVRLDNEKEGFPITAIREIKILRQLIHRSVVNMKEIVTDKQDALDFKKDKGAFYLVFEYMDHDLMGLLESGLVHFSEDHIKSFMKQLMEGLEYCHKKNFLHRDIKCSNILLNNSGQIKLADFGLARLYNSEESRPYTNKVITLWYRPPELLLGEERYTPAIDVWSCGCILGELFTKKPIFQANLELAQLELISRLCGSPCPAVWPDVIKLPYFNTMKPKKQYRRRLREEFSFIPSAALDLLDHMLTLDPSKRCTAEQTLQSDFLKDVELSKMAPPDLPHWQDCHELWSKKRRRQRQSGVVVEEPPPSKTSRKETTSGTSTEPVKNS
- Sequence (O75909 whole entry partner, species assumed, the tested form may be a part): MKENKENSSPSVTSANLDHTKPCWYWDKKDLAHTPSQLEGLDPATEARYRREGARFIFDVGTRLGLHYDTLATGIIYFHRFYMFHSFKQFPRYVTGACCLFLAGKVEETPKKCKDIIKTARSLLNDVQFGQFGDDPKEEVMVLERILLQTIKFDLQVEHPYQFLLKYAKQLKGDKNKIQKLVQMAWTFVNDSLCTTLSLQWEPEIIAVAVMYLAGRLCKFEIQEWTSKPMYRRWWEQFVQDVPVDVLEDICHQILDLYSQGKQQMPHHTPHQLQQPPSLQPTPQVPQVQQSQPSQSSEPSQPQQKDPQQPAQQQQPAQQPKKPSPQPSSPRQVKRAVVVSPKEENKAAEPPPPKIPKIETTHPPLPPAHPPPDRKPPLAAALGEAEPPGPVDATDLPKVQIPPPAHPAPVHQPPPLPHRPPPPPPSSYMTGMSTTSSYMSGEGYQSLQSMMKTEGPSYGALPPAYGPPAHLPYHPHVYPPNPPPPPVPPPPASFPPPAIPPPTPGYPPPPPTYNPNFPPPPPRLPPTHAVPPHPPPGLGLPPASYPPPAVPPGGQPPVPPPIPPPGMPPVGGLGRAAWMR
- test: CDK12 inhibition assay (Caliper/LabChip EZ Reader kinase assay)
- Assay type: biochemical
- stated_conditions: Table 1; CDK12 (aa686-1082)/Cyclin K 50 nM, ATP 2 mM, 3 hr at 27° C.
A collection of compounds and their measured IC50

[[record]]
compound = "CC(C)CN1CCC[C@H](Nc2ncc(Cl)c(-c3c[nH]c4ccccc34)n2)C1 [Compound 145]"
test_target = "CDK12 (aa686-1082)/Cyclin K complex (Homo sapiens, UniProt Q9NYV4)"
quantity_measured = "IC50"
reported_result = "200 to 5000 nM"

[[record]]
compound = "Fc1cc2[nH]cc(-c3nc(N[C@H]4CCCNC4)ncc3Cl)c2cc1F [Compound 111]"
test_target = "CDK12 (aa686-1082)/Cyclin K complex (Homo sapiens, UniProt Q9NYV4)"
quantity_measured = "IC50"
reported_result = "20 to 200 nM"

[[record]]
compound = "CC[C@]1(O)CCN(C(=O)c2ccc3c(-c4nc(N[C@H]5CCCNC5)ncc4C(F)(F)F)c[nH]c3c2)C1 (single isomer, unassigned) [Compound 347]"
test_target = "CDK12 (aa686-1082)/Cyclin K complex (Homo sapiens, UniProt Q9NYV4)"
quantity_measured = "IC50"
reported_result = "200 to 5000 nM"

[[record]]
compound = "Cc1n[nH]cc1-c1ccc2c(-c3nc(N[C@H]4CCCNC4)ncc3C(F)(F)F)c[nH]c2c1 [Compound 229]"
test_target = "CDK12 (aa686-1082)/Cyclin K complex (Homo sapiens, UniProt Q9NYV4)"
quantity_measured = "IC50"
reported_result = "200 to 5000 nM"

[[record]]
compound = "FC(F)(F)c1cnc(N[C@H]2CCCNC2)nc1-c1c[nH]c2cc(-c3ccc4cn[nH]c4c3)ccc12 [Compound 329]"
test_target = "CDK12 (aa686-1082)/Cyclin K complex (Homo sapiens, UniProt Q9NYV4)"
quantity_measured = "IC50"
reported_result = "200 to 5000 nM"

[[record]]
compound = "FC(F)Sc1ccc2c(-c3nc(N[C@H]4CCCNC4)ncc3C(F)(F)F)c[nH]c2c1 [Compound 374]"
test_target = "CDK12 (aa686-1082)/Cyclin K complex (Homo sapiens, UniProt Q9NYV4)"
quantity_measured = "IC50"
reported_result = "20 to 200 nM"


Let's switch to this compound now.
Query :: Please report IC50 with CDK12 (aa686-1082)/Cyclin K complex (Homo sapiens, UniProt Q9NYV4) for item O=C(c1ccc2c(-c3nc(N[C@H]4CCCNC4)ncc3C(F)(F)F)c[nH]c2c1)N1CC[C@@](O)(C(F)(F)F)C1 (single isomer, unassigned) [Compound 300] .
Result :: 200 to 5000 nM
